Readings of IC50, inhibition of IFN-γ release, human whole blood, LPS/IL-12 (native IL-18) for the listed binders
# measured on: T1, Native human IL-18 (human, UniProt Q14116 37-193)
# T1 sequence: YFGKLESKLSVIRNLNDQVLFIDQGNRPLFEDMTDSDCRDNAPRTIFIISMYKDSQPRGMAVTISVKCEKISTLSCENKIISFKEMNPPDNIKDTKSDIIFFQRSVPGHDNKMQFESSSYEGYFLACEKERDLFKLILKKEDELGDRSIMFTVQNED
# procedure text: cell-based or functional assay
Output spec: scalar in nM, unitless text.

1) MOR13363 (antibody, human IgG1, kappa, L234A L235A, V domains shown) VH: QVQLLESGGGLVQPGGSLRLSCAASGFTFSSYAIHWVRQAPGKGLEWVSVISGEGSNTYYADSVKGRFTISRDNSKNTLYLQMNSLRAEDTAVYYCARVMIGYGFDYWGQGTLVTVSS VL: DIQMTQSPSSLSASVGDRVTITCRASQSIFNYLNWYQQKPGKAPKLLIYDSSTLQSGVPSRFSGSGSGTDFTLTISSLQPEDFATYYCLQYSGFLFTFGQGTKVEIKR = 91.7

# evaluate next
binder MOR9464_N30K (antibody, human IgG1, lambda, L234A L235A, V domains shown, also called MOR09464_N30K) VH: EVQLVQSGAEVKKPGSSVKVSCKASGGTFKSYAISWVRQAPGQGLEWMGNIIPMTGQTYYAQKFQGRVTITADESTSTAYMELSSLRSEDTAVYYCARAAYHPLVFDNWGQGTLVTVSS VL: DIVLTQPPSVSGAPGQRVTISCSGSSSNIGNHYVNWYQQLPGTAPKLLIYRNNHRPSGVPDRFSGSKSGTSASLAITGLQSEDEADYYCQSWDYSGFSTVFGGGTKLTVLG , IC50, inhibition of IFN-γ release, human whole blood, LPS/IL-12 (native IL-18) observed: 17.1
